FYI, the data here is from patent US20100047907A1.

Test system: P-gp
Method Summary: Bidirectional digoxin Pgp transport across MDR-MDCK monolayers
Measurement Conditions: human, MDCK-MDR1, pH 7.4, Pgp transport, Papp B->A, air cargo shipped (three days in transit), 0.75% agarose media basolateral only; assayed day 12

Compound: C[C@H]1O[C@@H](O[C@H]2[C@@H](O)C[C@H](O[C@H]3[C@@H](O)C[C@H](O[C@H]4CC[C@@]5(C)[C@H](CC[C@@H]6[C@@H]5C[C@@H](O)[C@]5(C)[C@@H](C7=CC(=O)OC7)CC[C@]65O)C4)O[C@@H]3C)O[C@@H]2C)C[C@H](O)[C@@H]1O [Digoxin, digoxin]
Subject Of Test: P-gp
Papp B→A at 2 h, 10 µM [×10⁻⁶ cm/s]: 13.1

====

System: human P-glycoprotein (PGP)
Method Summary: Bidirectional digoxin Pgp transport across MDR-MDCK monolayers
Measurement Conditions: dog, MDCK-MDR1, pH 7.4, Pgp transport, Papp B->A, shipped, 0.5% agarose medium apical only, Table 5 upper block c4; assayed 7 D

Compound: C[C@H]1O[C@@H](O[C@H]2[C@@H](O)C[C@H](O[C@H]3[C@@H](O)C[C@H](O[C@H]4CC[C@@]5(C)[C@H](CC[C@@H]6[C@@H]5C[C@@H](O)[C@]5(C)[C@@H](C7=CC(=O)OC7)CC[C@]65O)C4)O[C@@H]3C)O[C@@H]2C)C[C@H](O)[C@@H]1O [Digoxin, digoxin]
Papp B→A at 120 min, 10 µM [×10⁻⁶ cm/s]: 6.39

====

System: P-gp
Method Summary: Bidirectional digoxin Pgp transport across MDCK monolayers
Measurement Conditions: dog, MDCK-MDR1, pH 7.4, Pgp transport, Papp B->A, Table 9 shipped, 0.75% agarose media basolateral only; assayed day 10

Item Smiles: C[C@H]1O[C@@H](O[C@H]2[C@@H](O)C[C@H](O[C@H]3[C@@H](O)C[C@H](O[C@H]4CC[C@@]5(C)[C@H](CC[C@@H]6[C@@H]5C[C@@H](O)[C@]5(C)[C@@H](C7=CC(=O)OC7)CC[C@]65O)C4)O[C@@H]3C)O[C@@H]2C)C[C@H](O)[C@@H]1O
Measure Unit: ×10⁻⁶ cm/s
Papp B→A at 2 h, 10 µM: 3.83

====

Subject Of Test: PGP (Homo sapiens)
Sequence (P08183 whole entry): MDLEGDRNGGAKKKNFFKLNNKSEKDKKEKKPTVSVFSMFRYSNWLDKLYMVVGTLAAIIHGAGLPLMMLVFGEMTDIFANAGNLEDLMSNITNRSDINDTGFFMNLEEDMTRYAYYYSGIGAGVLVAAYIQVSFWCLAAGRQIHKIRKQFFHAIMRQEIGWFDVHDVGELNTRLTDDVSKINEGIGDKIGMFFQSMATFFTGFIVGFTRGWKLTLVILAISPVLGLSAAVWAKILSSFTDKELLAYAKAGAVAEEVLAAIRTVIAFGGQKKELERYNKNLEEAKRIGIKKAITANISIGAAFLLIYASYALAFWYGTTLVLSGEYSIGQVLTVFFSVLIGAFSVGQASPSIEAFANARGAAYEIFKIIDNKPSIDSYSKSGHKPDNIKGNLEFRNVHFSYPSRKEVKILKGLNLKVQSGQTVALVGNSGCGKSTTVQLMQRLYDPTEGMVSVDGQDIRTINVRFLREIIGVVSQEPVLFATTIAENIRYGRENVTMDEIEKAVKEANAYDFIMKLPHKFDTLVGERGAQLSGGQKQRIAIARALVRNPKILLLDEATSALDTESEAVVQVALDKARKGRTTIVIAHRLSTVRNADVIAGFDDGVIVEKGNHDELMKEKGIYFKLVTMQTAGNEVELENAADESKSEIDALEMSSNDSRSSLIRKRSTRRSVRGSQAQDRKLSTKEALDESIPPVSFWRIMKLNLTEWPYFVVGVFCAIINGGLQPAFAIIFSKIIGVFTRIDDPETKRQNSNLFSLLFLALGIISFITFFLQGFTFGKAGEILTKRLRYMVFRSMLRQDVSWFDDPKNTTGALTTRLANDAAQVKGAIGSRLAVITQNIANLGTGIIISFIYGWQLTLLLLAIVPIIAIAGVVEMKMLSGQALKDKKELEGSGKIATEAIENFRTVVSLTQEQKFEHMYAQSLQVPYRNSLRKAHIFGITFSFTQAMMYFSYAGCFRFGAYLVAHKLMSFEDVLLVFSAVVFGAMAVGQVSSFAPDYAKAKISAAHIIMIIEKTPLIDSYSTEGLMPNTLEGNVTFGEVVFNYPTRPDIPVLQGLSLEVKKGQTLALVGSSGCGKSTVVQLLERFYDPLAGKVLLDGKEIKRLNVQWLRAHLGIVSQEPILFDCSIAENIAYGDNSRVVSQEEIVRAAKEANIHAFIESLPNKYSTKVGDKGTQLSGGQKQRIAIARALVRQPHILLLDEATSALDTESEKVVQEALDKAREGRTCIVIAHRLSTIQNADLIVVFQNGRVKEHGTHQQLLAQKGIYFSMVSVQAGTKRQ
Method Summary: in vitro
Measurement Conditions: Caco-2, pH 7.4, Pgp transport, Papp B->A

Compound: C[C@H]1O[C@@H](O[C@H]2[C@@H](O)C[C@H](O[C@H]3[C@@H](O)C[C@H](O[C@H]4CC[C@@]5(C)[C@H](CC[C@@H]6[C@@H]5C[C@@H](O)[C@]5(C)[C@@H](C7=CC(=O)OC7)CC[C@]65O)C4)O[C@@H]3C)O[C@@H]2C)C[C@H](O)[C@@H]1O [Digoxin, digoxin]
Papp B→A at 2 h, 10 µM (×10⁻⁶ cm/s): 15.2

====

Tested on: human P-glycoprotein (PGP)
Method Summary: Bidirectional digoxin Pgp transport across MDR-MDCK monolayers
Measurement Conditions: dog, MDCK-MDR1, pH 7.4, Pgp transport, Papp A->B, shipped, 0.5% agarose medium apical only, Table 5 lower block c2; assayed 7 D

Compound: C[C@H]1O[C@@H](O[C@H]2[C@@H](O)C[C@H](O[C@H]3[C@@H](O)C[C@H](O[C@H]4CC[C@@]5(C)[C@H](CC[C@@H]6[C@@H]5C[C@@H](O)[C@]5(C)[C@@H](C7=CC(=O)OC7)CC[C@]65O)C4)O[C@@H]3C)O[C@@H]2C)C[C@H](O)[C@@H]1O [Digoxin, digoxin]
Papp A→B at 120 min, 10 µM, ×10⁻⁶ cm/s: 0.09
